TEST_METHOD_NOTES: Half life in Swiss albino mouse brain at 30 mg/kg, po
Assay type: ADME, organism-based
Parameters: dose 30 mg/kg, route oral
PARAMETER: half-life
Write the quantity with the unit trailing the number.

Kindly note the recorded half-life for `Cc1nc(N2CCC(N3CCOCC3)CC2)nc2ccc(NC(=O)COc3ccc(OC(F)(F)F)cc3)cc12` , which is 1.7 h

====

TEST_METHOD_NOTES: Cmax in Swiss albino mouse brain at 30 mg/kg, po
Type: ADME, organism-based
Set-up: dose 30 mg/kg, route oral
PARAMETER: Cmax

Kindly note the recorded Cmax for `Cc1nc(N2CCC(N3CCOCC3)CC2)nc2ccc(NC(=O)COc3ccc(OC(F)(F)F)cc3)cc12` , which is 2660 nM

====

TEST_METHOD_NOTES: Metabolic stability in mouse liver microsomes assessed as compound remaining at 10 uM after 30 mins by HPLC analysis
Format: ADME, Microsome
PROTOCOL_CONDITIONS: read-out: Stability
Some compounds, each annotated with its measured remaining at 0.5 h, 10 µM.
Your answer is read as %, so omit the unit and give the number.

See these solved cases before continuing.
Kindly note the recorded remaining at 0.5 h, 10 µM for `Cc1nc(N2CCN(C(=O)C3CC3)CC2)nc2ccc(NC(=O)COc3ccc(OC(F)(F)F)cc3)cc12` , which is 43

Kindly note the recorded remaining at 0.5 h, 10 µM for Cc1nc(N2CCC(N3CCCC3)CC2)nc2ccc(NC(=O)C(C)Oc3ccc(Cl)cc3)cc12 (stereo unspecified) , which is 34

Kindly note the recorded remaining at 0.5 h, 10 µM for `Cc1nc(N2CCN(C3CCOCC3)CC2)nc2ccc(NC(=O)COc3ccc(Cl)cc3)cc12` , which is 1

***
Kindly note the recorded remaining at 0.5 h, 10 µM for `Cc1nc(N2CCC(C(=O)NC(C)C)CC2)nc2ccc(NC(=O)COc3ccc(Cl)cc3)cc12` , which is 11

Kindly note the recorded remaining at 0.5 h, 10 µM for `Cc1nc(N2CCC(NC(=O)C(C)C)CC2)nc2ccc(NC(=O)COc3ccc(Cl)cc3)cc12` , which is 9

Kindly note the recorded remaining at 0.5 h, 10 µM for `Cc1nc(N2CCN(C(=O)C3CCC3)CC2)nc2ccc(NC(=O)COc3ccc(OC(F)(F)F)cc3)cc12` , which is 69

====

TEST_METHOD_NOTES: Metabolic stability in human liver microsomes assessed as compound remaining at 10 uM after 30 mins by HPLC analysis
Type: ADME, Microsome
PROTOCOL_CONDITIONS: read-out: Stability
PARAMETER: remaining at 0.5 h, 10 µM (%)
Your answer is read as %, so omit the unit and give the number.

Kindly note the recorded remaining at 0.5 h, 10 µM for `Cc1nc(N2CCN(C(=O)C3CCC3)CC2)nc2ccc(NC(=O)COc3ccc(OC(F)(F)F)cc3)cc12` , which is 52

***
Kindly note the recorded remaining at 0.5 h, 10 µM for `Cc1nc(N2CCN(C3CCOCC3)CC2)nc2ccc(NC(=O)COc3ccc(Cl)cc3)cc12` , which is 39

Kindly note the recorded remaining at 0.5 h, 10 µM for `Cc1nc(N2CCC(C(=O)NC(C)C)CC2)nc2ccc(NC(=O)COc3ccc(Cl)cc3)cc12` , which is 70

Kindly note the recorded remaining at 0.5 h, 10 µM for `Cc1nc(N2CCC(NC(=O)C(C)C)CC2)nc2ccc(NC(=O)COc3ccc(Cl)cc3)cc12` , which is 23

Kindly note the recorded remaining at 0.5 h, 10 µM for `Cc1nc(N2CCN(C(=O)C3CC3)CC2)nc2ccc(NC(=O)COc3ccc(OC(F)(F)F)cc3)cc12` , which is 59

====

EXPERIMENTAL_TARGET: Melanin-concentrating hormone receptor 1 (Homo sapiens)
TEST_METHOD_NOTES: biochemical
Format: cell-based, CHO-K1
Description: Displacement of [125I]MCH from human recombinant MCHR1 expressed in CHO-K1 cell membranes after 2 hrs by SPA binding assay
PARAMETER: IC50 (nM)
Your answer is read as nM, so omit the unit and give the number.

See these solved cases before continuing.
Kindly note the recorded IC50 for `Cc1nc(N2CCCCC2)nc2ccc(NC(=O)COc3ccc(Cl)cc3)cc12` , which is 180

Kindly note the recorded IC50 for `CCC1(O)CCN(c2nc(C)c3cc(NC(=O)COc4ccc(Cl)cc4)ccc3n2)CC1` , which is 208

Kindly note the recorded IC50 for `Cc1nc(N2CCN(C3CCCC3)CC2)nc2ccc(NC(=O)COc3ccc(Cl)cc3)cc12` , which is 96

***
Kindly note the recorded IC50 for `Cc1nc(N2CCC(N3CCOCC3)CC2)nc2ccc(NC(=O)COc3ccc(OC(F)(F)F)cc3)cc12` , which is 6

Kindly note the recorded IC50 for `Cc1nc(N2CCC(O)(C3CCCCC3)CC2)nc2ccc(NC(=O)COc3ccc(OC(F)(F)F)cc3)cc12` , which is 327

Kindly note the recorded IC50 for `Cc1nc(N2CCN(C(=O)C3CCC3)CC2)nc2ccc(NC(=O)COc3ccc(OC(F)(F)F)cc3)cc12` , which is 84

Kindly note the recorded IC50 for `Cc1nc(N2CCN(C(=O)c3ccccc3)CC2)nc2ccc(NC(=O)COc3ccc(Cl)cc3)cc12` , which is 7300

Kindly note the recorded IC50 for `Cc1nc(N2CCN(C)CC2)nc2ccc(NC(=O)COc3ccc(Cl)cc3)cc12` , which is 220

Kindly note the recorded IC50 for `Cc1nc(N2CCC(C(=O)C3CC3)CC2)nc2ccc(NC(=O)COc3ccc(OC(F)(F)F)cc3)cc12` , which is 10

====

TEST_METHOD_NOTES: AUC (0 to 8 hrs) in Swiss albino mouse brain at 30 mg/kg, po
Assay type: ADME, organism-based
Set-up: time < 8 hr, dose 30 mg/kg, route oral
PARAMETER: AUC(0-t) at 8 h (µM·h)
Your answer is read as µM·h, so omit the unit and give the number.

Kindly note the recorded AUC(0-t) at 8 h for `Cc1nc(N2CCC(N3CCOCC3)CC2)nc2ccc(NC(=O)COc3ccc(OC(F)(F)F)cc3)cc12` , which is 6.21

====

EXPERIMENTAL_TARGET: Melanin-concentrating hormone receptor 1 (Homo sapiens, UniProt Q99705)
Sequence (Q99705 whole entry): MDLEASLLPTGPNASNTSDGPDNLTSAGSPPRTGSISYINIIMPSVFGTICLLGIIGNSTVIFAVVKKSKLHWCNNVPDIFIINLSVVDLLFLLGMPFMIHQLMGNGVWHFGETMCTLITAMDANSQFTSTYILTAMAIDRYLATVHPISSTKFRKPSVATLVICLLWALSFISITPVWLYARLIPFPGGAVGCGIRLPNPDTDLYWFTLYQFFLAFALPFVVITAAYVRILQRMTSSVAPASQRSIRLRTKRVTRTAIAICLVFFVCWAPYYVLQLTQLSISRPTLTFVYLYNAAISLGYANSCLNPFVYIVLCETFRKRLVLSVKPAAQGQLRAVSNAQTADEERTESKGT
TEST_METHOD_NOTES: Antagonist activity at human MCHR1 expressed in CHO-K1 cells assessed as inhibition of MCH peptide mediated response measuring [3H]inositol phosphate production by IP3-SPA-YSI assay
Assay type: functional, cell-based
Some molecules, each annotated with its measured IC50.
Your answer is read as nM, so omit the unit and give the number.

See these solved cases before continuing.
Lab entry: Melanin-concentrating hormone receptor 1 (Homo sapiens, UniProt Q99705) assay, molecule `Cc1nc(N2CCC(O)CC2)nc2ccc(NC(=O)COc3ccc(Cl)cc3)cc12` , IC50 = 163

Lab entry: Melanin-concentrating hormone receptor 1 (Homo sapiens, UniProt Q99705) assay, molecule Cc1nc(N2CCC(N3CCCC3)CC2)nc2ccc(NC(=O)C(C)Oc3ccc(Cl)cc3)cc12 (configuration not stated) , IC50 = 401

***
Lab entry: Melanin-concentrating hormone receptor 1 (Homo sapiens, UniProt Q99705) assay, molecule `Cc1nc(N2CCN(CC(C)(C)C)CC2)nc2ccc(NC(=O)COc3ccc(Cl)cc3)cc12` , IC50 = 246

Lab entry: Melanin-concentrating hormone receptor 1 (Homo sapiens, UniProt Q99705) assay, molecule `Cc1nc(N2CCC(O)(c3ccccc3)CC2)nc2ccc(NC(=O)COc3ccc(OC(F)(F)F)cc3)cc12` , IC50 = 67

Lab entry: Melanin-concentrating hormone receptor 1 (Homo sapiens, UniProt Q99705) assay, molecule `Cc1nc(N2CCN(C3CCOCC3)CC2)nc2ccc(NC(=O)COc3ccc(Cl)cc3)cc12` , IC50 = 115

Lab entry: Melanin-concentrating hormone receptor 1 (Homo sapiens, UniProt Q99705) assay, molecule `COC1CCN(c2nc(C)c3cc(NC(=O)COc4ccc(Cl)cc4)ccc3n2)CC1` , IC50 = 181

Lab entry: Melanin-concentrating hormone receptor 1 (Homo sapiens, UniProt Q99705) assay, molecule `COCC(=O)N1CCN(c2nc(C)c3cc(NC(=O)COc4ccc(Cl)cc4)ccc3n2)CC1` , IC50 = 295

Lab entry: Melanin-concentrating hormone receptor 1 (Homo sapiens, UniProt Q99705) assay, molecule `Cc1nc(N2CCN(C3CC3)CC2)nc2ccc(NC(=O)COc3ccc(Cl)cc3)cc12` , IC50 = 350

Lab entry: Melanin-concentrating hormone receptor 1 (Homo sapiens, UniProt Q99705) assay, molecule `Cc1nc(N2CCC(C(=O)C3CC3)CC2)nc2ccc(NC(=O)COc3ccc(OC(F)(F)F)cc3)cc12` , IC50 = 14

====

EXPERIMENTAL_TARGET: Melanin-concentrating hormone receptor 1 (Homo sapiens)
TEST_METHOD_NOTES: biochemical
Type: cell-based, CHO-K1
Some molecules, each annotated with its measured pIC50.
The scale used: pIC50 is minus the common logarithm of the concentration in molar units.

See these solved cases before continuing.
Kindly note the recorded pIC50 for `Cc1nc(N2CCC(N3CCCC3)CC2)nc2ccc(NC(=O)COc3ccc(Cl)cc3)cc12` , which is 7.70

Kindly note the recorded pIC50 for Cc1nc(N2CCC(N3CCCC3)CC2)nc2ccc(NC(=O)C(C)Oc3ccc(Cl)cc3)cc12 (stereo not drawn) , which is 6.59

***
Kindly note the recorded pIC50 for `COC1CCN(c2nc(C)c3cc(NC(=O)COc4ccc(Cl)cc4)ccc3n2)CC1` , which is 6.67

Kindly note the recorded pIC50 for `Cc1nc(N2CCC(C(=O)NC(C)C)CC2)nc2ccc(NC(=O)COc3ccc(Cl)cc3)cc12` , which is 7.82

Kindly note the recorded pIC50 for `Cc1nc(N2CCC(O)(C3CC3)CC2)nc2ccc(NC(=O)COc3ccc(OC(F)(F)F)cc3)cc12` , which is 7.00

Kindly note the recorded pIC50 for `Cc1nc(N2CCC(N3CCCC3)CC2)nc2ccc(NC(=O)COc3ccc(OC(F)(F)F)cc3)cc12` , which is 7.51

Kindly note the recorded pIC50 for `Cc1nc(N2CCN(C3CCOCC3)CC2)nc2ccc(NC(=O)COc3ccc(OC(F)(F)F)cc3)cc12` , which is 8.15

Kindly note the recorded pIC50 for `Cc1nc(N2CCC(C(=O)N(C)C)CC2)nc2ccc(NC(=O)COc3ccc(OC(F)(F)F)cc3)cc12` , which is 7.33

Kindly note the recorded pIC50 for `CCC1(O)CCN(c2nc(C)c3cc(NC(=O)COc4ccc(OC(F)(F)F)cc4)ccc3n2)CC1` , which is 6.94

Kindly note the recorded pIC50 for `Cc1nc(N2CCC(O)(c3cccc(F)c3)CC2)nc2ccc(NC(=O)COc3ccc(OC(F)(F)F)cc3)cc12` , which is 6.20

Kindly note the recorded pIC50 for `Cc1nc(N2CCC(O)(C(N)=O)CC2)nc2ccc(NC(=O)COc3ccc(OC(F)(F)F)cc3)cc12` , which is 6.20

Kindly note the recorded pIC50 for `Cc1nc(N2CCN(C(=O)CC(C)C)CC2)nc2ccc(NC(=O)COc3ccc(Cl)cc3)cc12` , which is 6.85

Kindly note the recorded pIC50 for `Cc1nc(N2CCN(C(=O)C(C)C)CC2)nc2ccc(NC(=O)COc3ccc(Cl)cc3)cc12` , which is 6.65

Kindly note the recorded pIC50 for `Cc1nc(N2CCC(O)(c3ccccc3)CC2)nc2ccc(NC(=O)COc3ccc(OC(F)(F)F)cc3)cc12` , which is 6.45

Kindly note the recorded pIC50 for `Cc1nc(N2CCN(C3CCOCC3)CC2)nc2ccc(NC(=O)COc3ccc(Cl)cc3)cc12` , which is 7.35

Kindly note the recorded pIC50 for `Cc1nc(N2CCC(C)(O)CC2)nc2ccc(NC(=O)COc3ccc(Cl)cc3)cc12` , which is 6.63

Kindly note the recorded pIC50 for `Cc1nc(N2CCN(CC(C)(C)C)CC2)nc2ccc(NC(=O)COc3ccc(Cl)cc3)cc12` , which is 6.11

Kindly note the recorded pIC50 for `Cc1nc(N2CCC(C(N)=O)CC2)nc2ccc(NC(=O)COc3ccc(OC(F)(F)F)cc3)cc12` , which is 7.64
